Values compiled from patent US20250263370A1.

# Measurement notes: Beagle dog PK study 2 of Example 101 (HPβCD based formulation, IV), with clinical observations
# Format: in vivo
# Condition parameters: beagle, dog, plasma, iv, 1 mg/kg, dog PK study 2, IV 1 mg/kg, HPβCD, 1 h, Test Animal 2; read-out: Plasma concentration
Metric name: concentration at 1 h (ng/mL)
Return type: number; implicit unit ng/mL.

Req: Please list concentration at 1 h recorded for the compound CNC(=O)c1[nH]c(C(=O)NC2CCC2)cc1O[C@@H](C)c1ccccc1 (stereo in doubt)
Resp: 140

====

# Measurement notes: Pharmacokinetics and plasma concentration of Example 101 in Lewis rats after oral administration (CIA study)
# Assay type: in vivo, Lewis rat
# Condition parameters: Lewis, rat, plasma, oral, 3 mg/kg, Day 21, Group 5 (CIA), 3 mg/kg, per animal; read-out: Plasma Concentration
Metric name: concentration at 21 day (µg/mL)
Return type: number; implicit unit µg/mL.

Req: Please list concentration at 21 day recorded for the compound CNC(=O)c1[nH]c(C(=O)NC2CCC2)cc1O[C@@H](C)c1ccccc1 (stereo in doubt) [Example 101]
Resp: 0.0549
